test system: UACC-62; assay: NCI 60 cell panel SRB screen; format: cell-based; details: Homo sapiens, UACC-62, read-out: percent cell growth promotion
Measure: activity at 10 µM (%)

compound="O=C(Nc1ccc(Cl)cc1)Nc1ccc(Oc2nncc3ccccc23)cc1 [Compound 7b]" reading=-14.3
compound="Clc1ccc(Nc2nnc(CNc3ccccc3)c3ccccc23)cc1 [Compound 16a]" reading=8.47
compound="Cc1nnc(Oc2ccc(NC(=O)Nc3ccc(Cl)cc3)cc2)c2ccccc12 [Compound 7e]" reading=45.8
compound="O=C(Nc1ccccc1)Nc1ccc(Oc2nnc(Cl)c3ccccc23)cc1 [Compound 13a]" reading=41.3
compound="CCOC(=O)N1CCN(c2nnc(C)c3ccccc23)CC1 [Compound 8f]" reading=109
compound="Cc1nnc(Nc2ccc(NC(=O)c3ccc(Cl)cc3)cc2)c2ccccc12 [Compound 5d]" reading=95.9
compound="Cc1nnc(N2CCN(c3ccccc3)CC2)c2ccccc12 [Compound 8g]" reading=110
compound="Clc1ccc(Nc2nnc(COc3ccccc3)c3ccccc23)cc1 [Compound 17a]" reading=-27.7
compound="COc1cccc(NCc2nnc(Nc3ccc(Cl)cc3)c3ccccc23)c1 [Compound 16d]" reading=-29.2

###

The reader will find GI50 measurements below, all made with UO-31.
Measure: GI50 (µM)

molecule=O=C(Nc1ccc(Cl)cc1)Nc1ccc(Nc2nncc3ccccc23)cc1 units_label=µM reading=1.9
molecule="Clc1ccc(Nc2nnc(CNc3ccccc3)c3ccccc23)cc1 [Compound 16a]" units_label=µM reading=1.36
molecule=Cc1nnc(Nc2ccc(NC(=O)Nc3ccc(Cl)cc3)cc2)c2ccccc12 units_label=µM reading=2.14
molecule=O=C(Nc1ccc(Cl)cc1)Nc1ccc(Oc2nncc3ccccc23)cc1 units_label=µM reading=1.29
molecule="COc1cccc(NCc2nnc(Nc3ccc(Cl)cc3)c3ccccc23)c1 [Compound 16d]" units_label=µM reading=0.6
molecule="Clc1ccc(Nc2nnc(COc3ccccc3)c3ccccc23)cc1 [Compound 17a]" units_label=µM reading=0.72
molecule="O=C(Nc1ccccc1)Nc1ccc(Oc2nnc(Cl)c3ccccc23)cc1 [Compound 13a]" units_label=µM reading=3.98

###

Listed here are compounds together with their documented activity at 10 µM.
system: UACC-62; test: NCI 60 cell panel SRB screen; assay type: cell-based; conditions: Homo sapiens, UACC-62, read-out: percent cell growth promotion
Measure: activity at 10 µM (%)

compound=O=C(Nc1ccc(Nc2nncc3ccccc23)cc1)c1ccc(Cl)cc1 measure="activity at 10 µM" reading=89.8
compound=c1ccc(N2CCN(c3nncc4ccccc34)CC2)nc1 measure="activity at 10 µM" reading=99.6
compound="O=C(Nc1ccc(Cl)cc1)Nc1ccc(Oc2nnc(Cl)c3ccccc23)cc1 [Compound 13b]" measure="activity at 10 µM" reading=75.7
compound=Cc1nnc(N2CCN(c3ccccc3F)CC2)c2ccccc12 measure="activity at 10 µM" reading=99.2
compound=O=C(Nc1ccc(Cl)cc1)Nc1ccc(Nc2nncc3ccccc23)cc1 measure="activity at 10 µM" reading=13.4

###

test system: HL-60(TB); assay: NCI 60 cell panel SRB screen; assay type: cell-based; conditions: Homo sapiens, 5 log dose
Listed here are molecules together with their documented IC (TGI).
Measure: IC (TGI) (µM)

molecule="COc1cccc(NCc2nnc(Nc3ccc(Cl)cc3)c3ccccc23)c1 [Compound 16d]" sign_qualifier== reading=13.1
molecule="O=C(Nc1ccc(Cl)cc1)Nc1ccc(Nc2nncc3ccccc23)cc1 [Compound 6b]" sign_qualifier== reading=7
molecule="O=C(Nc1ccccc1)Nc1ccc(Oc2nnc(Cl)c3ccccc23)cc1 [Compound 13a]" sign_qualifier=> reading=25
molecule="O=C(Nc1ccc(Cl)cc1)Nc1ccc(Oc2nncc3ccccc23)cc1 [Compound 7b]" sign_qualifier== reading=13.4
molecule="Cc1nnc(Nc2ccc(NC(=O)Nc3ccc(Cl)cc3)cc2)c2ccccc12 [Compound 6e]" sign_qualifier== reading=4.18

###

tested on: SR; experiment: NCI 60 cell panel SRB screen; format: cell-based; conditions: Homo sapiens, single dose 10 μM, read-out: percent cell growth promotion
Measure: activity at 10 µM (%)

compound=O=C(Nc1ccc(Nc2nncc3ccccc23)cc1)c1ccc(Cl)cc1 experimental_target=SR units_label=% reading=95
compound=c1ccc(N2CCN(c3nncc4ccccc34)CC2)nc1 experimental_target=SR units_label=% reading=103
compound=Cc1nnc(N2CCN(c3ccccc3F)CC2)c2ccccc12 experimental_target=SR units_label=% reading=95.1
compound=Cc1nnc(N2CCN(c3ccccn3)CC2)c2ccccc12 experimental_target=SR units_label=% reading=92.1
compound="O=C(Nc1ccc(Cl)cc1)Nc1ccc(Oc2nnc(Cl)c3ccccc23)cc1 [Compound 13b]" experimental_target=SR units_label=% reading=82.8
compound="O=C(Nc1ccccc1)Nc1ccc(Oc2nnc(Cl)c3ccccc23)cc1 [Compound 13a]" experimental_target=SR units_label=% reading=18
compound=O=C(Nc1ccc(Cl)cc1)Nc1ccc(Oc2nncc3ccccc23)cc1 experimental_target=SR units_label=% reading=2.64
compound="Clc1ccc(Nc2nnc(COc3ccccc3)c3ccccc23)cc1 [Compound 17a]" experimental_target=SR units_label=% reading=-20.6
compound="COc1cccc(NCc2nnc(Nc3ccc(Cl)cc3)c3ccccc23)c1 [Compound 16d]" experimental_target=SR units_label=% reading=-24.5
compound=Cc1nnc(Nc2ccc(NC(=O)c3ccc(Cl)cc3)cc2)c2ccccc12 experimental_target=SR units_label=% reading=86.3
compound=CCOC(=O)N1CCN(c2nncc3ccccc23)CC1 experimental_target=SR units_label=% reading=102
compound=Cc1nnc(Oc2ccc(NC(=O)Nc3ccc(Cl)cc3)cc2)c2ccccc12 experimental_target=SR units_label=% reading=38.5
compound=CCOC(=O)N1CCN(c2nnc(C)c3ccccc23)CC1 experimental_target=SR units_label=% reading=101
compound=Cc1nnc(Nc2ccc(NC(=O)Nc3ccc(Cl)cc3)cc2)c2ccccc12 experimental_target=SR units_label=% reading=-3.51
compound=O=C(Nc1ccc(Cl)cc1)Nc1ccc(Nc2nncc3ccccc23)cc1 experimental_target=SR units_label=% reading=17.5

###

Listed here are compounds together with their documented activity at 10 µM.
system: RXF 393; assay: NCI 60 cell panel SRB screen; type: cell-based; conditions: Homo sapiens; RXF 393, single dose 10 μM; read-out: percent cell growth promotion
Measure: activity at 10 µM (%)

compound="CCOC(=O)N1CCN(c2nnc(C)c3ccccc23)CC1 [Compound 8f]" measure="activity at 10 µM" reading=108
compound="O=C(Nc1ccc(Cl)cc1)Nc1ccc(Nc2nncc3ccccc23)cc1 [Compound 6b]" measure="activity at 10 µM" reading=65.7
compound="Cc1nnc(N2CCN(c3ccccc3)CC2)c2ccccc12 [Compound 8g]" measure="activity at 10 µM" reading=105
compound="O=C(Nc1ccc(Cl)cc1)Nc1ccc(Oc2nncc3ccccc23)cc1 [Compound 7b]" measure="activity at 10 µM" reading=-91.2
compound="CCOC(=O)N1CCN(c2nncc3ccccc23)CC1 [Compound 8a]" measure="activity at 10 µM" reading=102
compound="Cc1nnc(Nc2ccc(NC(=O)c3ccc(Cl)cc3)cc2)c2ccccc12 [Compound 5d]" measure="activity at 10 µM" reading=98.7
compound="c1ccc(N2CCN(c3nncc4ccccc34)CC2)nc1 [Compound 8d]" measure="activity at 10 µM" reading=108
compound="COc1cccc(NCc2nnc(Nc3ccc(Cl)cc3)c3ccccc23)c1 [Compound 16d]" measure="activity at 10 µM" reading=-11.6
compound="O=C(Nc1ccc(Cl)cc1)Nc1ccc(Oc2nnc(Cl)c3ccccc23)cc1 [Compound 13b]" measure="activity at 10 µM" reading=99.7
compound="Cc1nnc(N2CCN(c3ccccn3)CC2)c2ccccc12 [Compound 8i]" measure="activity at 10 µM" reading=98.6
compound="Cc1nnc(N2CCN(c3ccccc3F)CC2)c2ccccc12 [Compound 8h]" measure="activity at 10 µM" reading=99.8
compound="Cc1nnc(Oc2ccc(NC(=O)Nc3ccc(Cl)cc3)cc2)c2ccccc12 [Compound 7e]" measure="activity at 10 µM" reading=82
compound="O=C(Nc1ccc(Nc2nncc3ccccc23)cc1)c1ccc(Cl)cc1 [Compound 5b]" measure="activity at 10 µM" reading=115

###

system: SF-295; experiment: NCI 60 cell panel SRB screen; type: cell-based; settings: Homo sapiens; SF-295, single dose 10 μM; read-out: percent cell growth promotion
Measure: activity at 10 µM (%)

molecule=Cc1nnc(N2CCN(c3ccccn3)CC2)c2ccccc12 units_label=% reading=87.8
molecule=Cc1nnc(Oc2ccc(NC(=O)Nc3ccc(Cl)cc3)cc2)c2ccccc12 units_label=% reading=91.8
molecule="O=C(Nc1ccc(Cl)cc1)Nc1ccc(Oc2nnc(Cl)c3ccccc23)cc1 [Compound 13b]" units_label=% reading=91.6

###

test system: SK-OV-3; assay: NCI 60 cell panel SRB screen; assay type: cell-based; settings: Homo sapiens; SK-OV-3, 5 log dose, 48 h; read-out: LC50 (the source's name)
Listed here are molecules together with their documented CC50.
Measure: CC50

molecule="Clc1ccc(Nc2nnc(COc3ccccc3)c3ccccc23)cc1 [Compound 17a]" measure=CC50 reading="> 25 µM"
molecule="O=C(Nc1ccc(Cl)cc1)Nc1ccc(Nc2nncc3ccccc23)cc1 [Compound 6b]" measure=CC50 reading="> 100 µM"
molecule="Clc1ccc(Nc2nnc(CNc3ccccc3)c3ccccc23)cc1 [Compound 16a]" measure=CC50 reading="> 25 µM"
molecule="COc1cccc(NCc2nnc(Nc3ccc(Cl)cc3)c3ccccc23)c1 [Compound 16d]" measure=CC50 reading="> 25 µM"
